FYI, the data here is from paper PMC13376213.

Target: USP20 DUSP2 domain, tag cleaved (for FP) (human)
Sequence (chain, as listed by the source): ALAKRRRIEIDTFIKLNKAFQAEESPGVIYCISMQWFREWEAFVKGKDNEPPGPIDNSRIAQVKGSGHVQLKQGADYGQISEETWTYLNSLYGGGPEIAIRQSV
Test: FP
pKd: −log10 of the molar value. * marks the point of attachment. FITC = O=C1OC2(c3ccc(O)cc3Oc3cc(O)ccc32)c2ccc(NC(=S)*)cc21
QUANTITY: pKd

(a) Ac-PYIPMDDDFQARSFDQLS-NH2 [HIF1A 564-581 L574A]
(b) {FITC}-SDDDLAWNIAPQGLQ-NH2 [FITC-GPR137B 348-362]
// which entry has the larger pKd value, a or b ? Returns: label corresponding to the selected item. b
(b: 5.30, a: 4.05)

(1) Ac-QLEEELFQLRQGPAG-NH2 [CCDC88B_(947-961) peptide]
(2) Ac-PYIPMDDKFQLRSFDQLS-NH2 [HIF1A 564-581 D571K]
// which entry has the larger pKd value, 1 or 2 ? Returns: label corresponding to the selected item. 1
